# solubility change mitosis (log2) per record follows
- Tested on: HeLa Kyoto;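 also: synchronized HeLa Kyoto cells (double thymidine block for G1/S, nocodazole release for mitosis), protein amounts in NP-40 versus SDS lysates quantified by mass spectrometry, three biological replicates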
- experiment: solubility change mitosis vs G1/S (difference of NP-40 vs SDS log2 ratios) (log2 ratio difference); higher = more soluble in mitosis
// no unit, no text: just the number

Examples from the recorded data:
MPDQALQQMLDRSCWVCFATDEDDRTAEWVRPCRCRGSTKWVHQACLQRWVDEKQRGNSTARVACPQCNAEYLIVFPKLGPVVYVLDLADRLISKACPFAAAGIMVGSIYWTAVTYGAVTVMQVVGHKEGLDVMERADPLFLLIGLPTIPVMLILGKMIRWEDYVLRLWRKYSNKLQILNSIFPGIGCPVPRIPAEANPLADHVSATRILCGALVFPTIATIVGKLMFSSVNSNLQRTILGGIAFVAIKGAFKVYFKQQQYLRQAHRKILNYPEQEEA [MARCH5]
0.0312
MNQFGPSALINLSNFSSIKPEPASTPPQGSMANSTAVVKIPGTPGAGGRLSPENNQVLTKKKLQDLVREVDPNEQLDEDVEEMLLQIADDFIESVVTAACQLARHRKSSTLEVKDVQLHLERQWNMWIPGFGSEEIRPYKKACTTEAHKQRMALIRKTTKK [TAF12]
0.151
PACSIN3
0.0183

Continue with the next substance.
Retrieve solubility change mitosis (log2) measured for MYLQVETRTSSRLHLKRAPGIRSWSLLVGILSIGLAAAYYSGDSLGWKLFYVTGCLFVAVQNLEDWEEAIFDKSTGKVVLKTFSLYKKLLTLFRAGHDQVVVLLHDVRDVSVEEEKVRYFGKGYMVVLRLATGFSHPLTQSAVMGHRSDVEAIAKLITSFLELHCLESPTELSQSSDSEAGDPASQS [C17ORF62] and print it.
-0.128
